System: SF-539
Assay: NCI tumour cell line growth inhibition, 48 h
Calls of active or inactive are those of the source. Rule as the data show it: active = GI50 up to about 1.1 µM and inactive = higher.
Reported GI50 values for a set of molecules
Observable: GI50

• C[C@]12CC[C@H]3[C@@H](CCC4=C[C@@H](OC5OCC(OC6OC(CO)C(O)C(O)C6O)C(O)C5O)CC[C@@]43C=O)[C@@]1(O)CCC2C1=CC(=O)OC1 (some centres undefined) = 391 nM (active)
• O=C1Nc2ccccc2/C1=N/Nc1ccc([N+](=O)[O-])cc1 = 3830 nM (inactive)
• COc1ccc(Nc2[nH]c(C(C)=O)c(N)c2C(=S)Nc2ccccc2)cc1 = 73100 nM (inactive)
• N#CC1=C(N)n2c(s/c(=C\c3ccc(Cl)cc3)c2=O)=C(c2nc3ccccc3[nH]2)C1c1ccc(Cl)cc1 (centres undefined) = 1980 nM (inactive)
